System: T-47D cells
procedure text: Caspase cascade activation / induction of apoptosis in T-47D cells (fluorogenic N-(Ac-DEVD)-N'-ethoxycarbonyl-R110 substrate)
Format: cell-based, human
test context: Homo sapiens, T47D; T-47D, 24 hr; read-out: T-47D (24 hr) EC50
Class assignment keyed on EC50, ranges range A (below 20 nM), range B (20 nM to below 300 nM), range C (300 nM or more)

>>> group("COc1ccc(Nc2nc(C)nc3ccccc23)cn1")
"range C"
>>> group("CCc1ccc(Nc2nc(C)nc3ccccc23)cc1")
"range C"
>>> group("COc1ccc(N(C)c2nc(C)nc3ccc([N+](=O)[O-])cc23)cc1")
"range B"
>>> group("COc1cc2nc(Cl)nc(N(C)c3ccc(C)cc3)c2cc1OC")
"range C"
>>> group("COc1ccc(Nc2nc(C)nc3ccccc23)nc1")
"range C"
>>> group("COc1ccc(N(C)c2nc(CN(C)C)nc3ccccc23)cc1")
"range C"
>>> group("COc1ccc(N(c2nc(Cl)nc3ccccc23)C(C)C)cc1")
"range C"
>>> group("COc1cnc(N(C)c2nc(C)nc3ccccc23)cn1")
"range B"
>>> group("COc1ccc(N(C)c2nc(C)nc3ccccc23)nc1")
"range A"
>>> group("COc1ccc(N(C)c2nc(C)nc3cc(N)ccc23)cc1")
"range C"
>>> group("Cc1nc(N(C)c2ccc(N)cc2Br)c2ccccc2n1")
"range B"
>>> group("Cc1nc(N(C)c2ccc(N=[N+]=[N-])cc2)c2ccccc2n1")
"range A"
>>> group("COc1ccc(N(C)c2nc(C)nc3ncccc23)cc1")
"range A"
>>> group("COc1cnc(Nc2nc(C)nc3ccccc23)nc1")
"range C"
>>> group("CCc1ccc(N(C)c2nc(C)nc3ccccc23)cc1")
"range B"
>>> group("Cc1nc(N(C)c2ccc(OC(F)F)cc2)c2ccccc2n1")
"range A"
>>> group("Cc1nc(N(C)c2ccc(F)cc2)c2ccccc2n1")
"range C"
>>> group("COc1ccc(Nc2nc(C)nc3ccccc23)cc1F")
"range C"
>>> group("Cc1nc(N(C)c2ccc(OC(C)C)cc2)c2ccccc2n1")
"range B"
>>> group("COc1ccc(N(C)c2nc(SC)nc3ccccc23)cc1")
"range A"

The values you see were collected from patent US20130029942A1.
